The values you see were collected from PubChem BioAssay AID743449.

# TEST: YAP1 pathway inhibitors via CTGF transcript, primary screen, DLD1 colon cancer cells, RT-qPCR, single point (AID 743449);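 further: 0% = neutral control wells and 100% = dasatinib control wells; higher means stronger suppression of CTGF expression like dasatinib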
# CONDITION_LABEL: DLD1 CTGF mRNA qPCR, 24 h; at 12.5 µM; stronger effect = higher value
Hit rate of the full screen: of about 9,900 compounds, about 90 (0.9%) were called active. Another 2% or so got no clear call; they are omitted. The full list was thinned out, with actives kept by preference.
Reported values of inhibition for individual entries
RECORDED_ENDPOINT: inhibition (%)

[[record]]
smiles_notation = "CN1C(=O)c2cc(NC(=O)Cc3cccs3)ccc2OC[C@H]2O[C@H](CC(=O)NCCc3ccncc3)CC[C@@H]21"
recorded_endpoint = "inhibition"
readout_units = "%"
value_reported = -70.9

[[record]]
smiles_notation = "CN1C(=O)c2cc(NS(=O)(=O)c3ccccc3F)ccc2OC[C@@H]2O[C@H](CC(=O)NC3Cc4ccccc4C3)CC[C@@H]21"
recorded_endpoint = "inhibition"
readout_units = "%"
value_reported = -9.49

[[record]]
smiles_notation = "CN1CCN(C(=O)C[C@@H]2CC[C@H]3[C@@H](COc4ccc(NC(=O)C5CCOCC5)cc4C(=O)N3C)O2)CC1"
recorded_endpoint = "inhibition"
readout_units = "%"
value_reported = 51.1

[[record]]
smiles_notation = "CN1C(=O)c2cc(NC(=O)Cc3cccs3)ccc2OC[C@@H]2O[C@@H](CC(=O)NCCc3ccncc3)CC[C@H]21"
recorded_endpoint = "inhibition"
readout_units = "%"
value_reported = 60.1

[[record]]
smiles_notation = "CN1CCN(C(=O)C[C@H]2CC[C@H]3[C@@H](COc4ccc(NC(=O)C5CCOCC5)cc4C(=O)N3C)O2)CC1"
recorded_endpoint = "inhibition"
readout_units = "%"
value_reported = -56

[[record]]
smiles_notation = "O=C(CN1CCOCC1)N[C@@H]1CC[C@@H](CCn2cc(C3CC3)nn2)O[C@H]1CO"
recorded_endpoint = "inhibition"
readout_units = "%"
value_reported = -8.58

[[record]]
smiles_notation = "CCCC(=O)N1CC2(C1)CN(CC1CC1)[C@@H](CO)c1[nH]c3cc(OC)ccc3c12"
recorded_endpoint = "inhibition"
readout_units = "%"
value_reported = -16.5

[[record]]
smiles_notation = "CCN1[C@@H]2c3ccc(C4=CCCC4)c(=O)n3C[C@@H]2[C@@H](CO)[C@@H]1C(=O)NC1Cc2ccccc2C1"
recorded_endpoint = "inhibition"
readout_units = "%"
value_reported = -18.3


---

# TEST: YAP1 pathway inhibitors via CTGF transcript, primary screen, DLD1 colon cancer cells, RT-qPCR, single point (AID 743449);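 further: 0% = neutral control wells and 100% = dasatinib control wells; higher means stronger suppression of CTGF expression like dasatinib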
# CONDITION_LABEL: DLD1 CTGF mRNA qPCR, 24 h; at 12.5 µM; stronger effect = higher value
Out of some 9,900 compounds screened, about 90 (0.9%) were called active. Not shown: some 2% with an inconclusive outcome. The sample as a whole holds a higher share of actives than the screen did.
RECORDED_ENDPOINT: inhibition

[[record]]
molecule = "Cc1cccc(-c2ccc([C@H]3[C@@H](CO)N4CCCCN(S(=O)(=O)c5ccccc5F)C[C@@H]34)cc2)c1"
recorded_endpoint = "inhibition"
value_reported = "-8.63% (inactive)"

[[record]]
molecule = "Cc1ccccc1-c1ccc([C@H]2[C@@H](CO)N3CCCCN(S(=O)(=O)Cc4ccccc4)C[C@@H]23)cc1"
recorded_endpoint = "inhibition"
value_reported = "66% (active)"

[[record]]
molecule = "CC(=O)N1C[C@@H]2N[C@H](C1)C2c1ccc(-c2ccccc2)cc1 (stereo partly specified)"
recorded_endpoint = "inhibition"
value_reported = "-22.3% (inactive)"

[[record]]
molecule = "C[C@@H]1CN([C@H](C)CO)C(=O)c2ccccc2-c2ccccc2CO[C@@H]1CN(C)Cc1ccc(Oc2ccccc2)cc1"
recorded_endpoint = "inhibition"
value_reported = "83.9% (active)"

[[record]]
molecule = "C[C@H](CO)N1C[C@H](C)[C@H](CN(C)Cc2ccc(Oc3ccccc3)cc2)OCc2ccccc2-c2ccccc2C1=O"
recorded_endpoint = "inhibition"
value_reported = "59% (active)"

[[record]]
molecule = "CC(=O)N1CCCCN2[C@H](CO)[C@H](c3ccc(-c4ccccc4)cc3)[C@H]2C1"
recorded_endpoint = "inhibition"
value_reported = "9.46% (inactive)"

[[record]]
molecule = "Cc1ccccc1-c1ccc([C@H]2[C@@H](CO)N3CCCCN(S(=O)(=O)Cc4ccccc4)C[C@H]23)cc1"
recorded_endpoint = "inhibition"
value_reported = "-18.5% (inactive)"

[[record]]
molecule = "COc1ccccc1C#Cc1ccc([C@@H]2[C@@H](C#N)N(C(=O)C3CCC3)[C@@H]2CO)cc1"
recorded_endpoint = "inhibition"
value_reported = "21% (inactive)"

[[record]]
molecule = "O=C(C1CCOCC1)N1CC2(C1)[C@H](c1ccccc1)[C@@H](CO)N2C(=O)CC1CC1"
recorded_endpoint = "inhibition"
value_reported = "-35.8% (inactive)"

[[record]]
molecule = "Cc1ccccc1-c1ccc([C@@H]2[C@H](CO)N3CCCCN(S(=O)(=O)Cc4ccccc4)C[C@@H]23)cc1"
recorded_endpoint = "inhibition"
value_reported = "26% (inactive)"

[[record]]
molecule = "C[C@H](CO)N1C[C@H](C)[C@H](CN(C)Cc2ccc3c(c2)OCCN3C)OCc2ccccc2-c2ccccc2C1=O"
recorded_endpoint = "inhibition"
value_reported = "-137% (inactive)"

[[record]]
molecule = "CC(C)c1cccc(NC(=O)C[C@H]2CC[C@H]3[C@@H](COc4ccc(NC(=O)NCc5ccccc5)cc4C(=O)N3C)O2)c1"
recorded_endpoint = "inhibition"
value_reported = "22.2% (inactive)"

[[record]]
molecule = "C[C@H]1CN([C@@H](C)CO)C(=O)c2ccccc2-c2ccccc2CO[C@H]1CN(C)Cc1ccc(Oc2ccccc2)cc1"
recorded_endpoint = "inhibition"
value_reported = "47.8% (inactive)"

[[record]]
molecule = "CCCNC(=O)N1[C@@H]2Cn3c(cccc3=O)[C@H]1[C@@H](C(=O)N1CCC(Cc3ccccc3)CC1)[C@@H]2CO"
recorded_endpoint = "inhibition"
value_reported = "-24.7% (inactive)"

[[record]]
molecule = "COc1ccc2c3c(n(C)c2c1)[C@H](CO)N(Cc1ccncc1)CC31CN(C(=O)Nc2cccc(F)c2)C1"
recorded_endpoint = "inhibition"
value_reported = "46.1% (inactive)"

[[record]]
molecule = "COc1ccc(NC(=O)N2CCCCN3[C@H](C2)[C@@H](c2ccc(-c4ccccc4F)cc2)[C@@H]3CO)cc1"
recorded_endpoint = "inhibition"
value_reported = "-27.6% (inactive)"

